Values from BindingDB's records for doi:10.7270/Q2TX3CTT

- test_target: Glycogen synthase kinase-3 beta (Homo sapiens, UniProt P49841)
- Sequence (P49841 whole entry): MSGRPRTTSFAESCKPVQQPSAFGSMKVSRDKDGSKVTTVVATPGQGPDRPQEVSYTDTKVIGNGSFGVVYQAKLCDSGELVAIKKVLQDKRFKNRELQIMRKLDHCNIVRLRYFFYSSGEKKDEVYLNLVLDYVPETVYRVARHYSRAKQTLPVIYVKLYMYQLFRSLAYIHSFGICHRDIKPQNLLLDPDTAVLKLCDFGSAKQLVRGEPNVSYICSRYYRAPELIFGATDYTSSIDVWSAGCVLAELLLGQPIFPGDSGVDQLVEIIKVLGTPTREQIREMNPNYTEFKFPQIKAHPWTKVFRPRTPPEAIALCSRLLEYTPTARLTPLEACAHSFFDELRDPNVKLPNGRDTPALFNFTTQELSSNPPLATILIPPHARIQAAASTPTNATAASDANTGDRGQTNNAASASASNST
- assay_remarks: concentration-response blocking of human GSK3B – biochemical, luminescence, cell-free homogeneous, retest, dose response (AID 434954)
pEC50: −log10 of the molar value.
metric_name: pEC50

Use the examples below as a reference point.
COc1ccc(-c2noc(CSc3nnc(-c4ccccc4)n3C)n2)cc1
< 3.52
COc1ccc(C(=O)c2sc(Nc3ccccc3)nc2N)cc1OC
6.45
CCc1nnc(NC(=O)c2cc(-c3ccccc3)nn2-c2ccccc2)s1
< 3.52
COC(=O)c1ccc(-n2c(O)cc(N3CCN(C(=O)c4ccco4)CC3)c2O)cc1
< 3.52

Give pEC50 for each of the items listed below.
1. O=C(Nc1cccc(F)c1)Nc1ccccn1
2. Cc1nc(Nc2ccc(S(N)(=O)=O)cc2)sc1C(=O)Nc1ccccc1
3. CCC(Sc1ccc2nnc(-c3ccc(F)cc3)n2n1)C(=O)OC (stereo not given)
4. CCOC(=O)C1C(C)=Nc2ncnn2C1/C=C/c1ccccc1 (stereo not given)
5. COC(=O)c1ccc2c(=O)n(CC3CCCO3)c(SCC(=O)Nc3ccccc3Cl)nc2c1 (stereo not given)
6. O=C(O)CNCC1COc2ccccc2O1 (stereo not given)

Data returned:
1. < 3.52
2. < 3.52
3. 4.70
4. < 3.52
5. < 3.52
6. < 3.52

Take each entry in turn and give its pEC50.
1. CCOC(=O)CC(=O)CSc1ccc2nnc(-c3ccc(C)cc3)n2n1
2. COc1ccc(OC)c(C=NNC(=O)CCc2c(C)n[nH]c2C)c1
3. CCCC1=Nc2ncnn2C(c2sccc2C)C1C(=O)OCC (stereo not given)

Data returned:
1. 4.84
2. < 3.52
3. < 3.52
